TGT: HRgpA-6H (Porphyromonas gingivalis) (UniProt P28784)
ASSAY NOTES: ELISA, FASEBA Fab on coated HRgpA-6H
Ratio OD(Variant)/OD(WT) listing for selected binders.
EXPERIMENTAL READOUT: Ratio OD(Variant)/OD(WT)

{"BINDER": "KB001 mouse Fab VL N54K (Fab, V domains shown) VH: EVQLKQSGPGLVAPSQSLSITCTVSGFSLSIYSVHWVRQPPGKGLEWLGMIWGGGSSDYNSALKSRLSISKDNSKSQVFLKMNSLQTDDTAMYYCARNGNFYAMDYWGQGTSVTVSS VL: QIVLTQSPAIMSASLGERVTMTCTASSSVSSSFLHWYQQKPGSSPQLWIYSTSKLASGVPARFSGSGSGTSYSLTISSMEAEDAATYYCHQYHHSPYIYTFGGGTKLEIK", "QUANTITATIVE READOUT": 0.928}
{"BINDER": "KB001 mouse Fab VL S57P (Fab, V domains shown) VH: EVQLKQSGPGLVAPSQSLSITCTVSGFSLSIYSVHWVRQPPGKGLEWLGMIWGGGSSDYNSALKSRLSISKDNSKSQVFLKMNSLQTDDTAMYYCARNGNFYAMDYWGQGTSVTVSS VL: QIVLTQSPAIMSASLGERVTMTCTASSSVSSSFLHWYQQKPGSSPQLWIYSTSNLAPGVPARFSGSGSGTSYSLTISSMEAEDAATYYCHQYHHSPYIYTFGGGTKLEIK", "QUANTITATIVE READOUT": 1.05}
{"BINDER": "KB001 mouse Fab VL S53V (Fab, V domains shown) VH: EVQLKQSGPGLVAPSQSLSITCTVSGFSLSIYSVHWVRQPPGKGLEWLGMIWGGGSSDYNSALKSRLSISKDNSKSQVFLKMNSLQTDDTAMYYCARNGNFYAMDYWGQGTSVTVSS VL: QIVLTQSPAIMSASLGERVTMTCTASSSVSSSFLHWYQQKPGSSPQLWIYSTVNLASGVPARFSGSGSGTSYSLTISSMEAEDAATYYCHQYHHSPYIYTFGGGTKLEIK", "QUANTITATIVE READOUT": 0.891}
